Tested on: HepG2
Measurement notes: cytotoxicity call (relative viability < 0.9)
Test conditions: 10 µM
Out of some 39,000 compounds screened, about 3,300 (8.5%) were called active. Many of the other results were omitted from the sample, so actives are more common in it than they were.
Valid outcomes are listed here; reply with one: active, inactive

Cc1noc(C)c1S(=O)(=O)Nc1ccc2c(c1)CC(=O)N([C@@H](C)CO)C[C@H](C)[C@H](CN(C)Cc1ccc3c(c1)OCO3)O2	inactive
C[C@H](CO)N1C[C@H](C)[C@@H](CN(C)Cc2ccncc2)OCCCC[C@H](C)Oc2ccc(NC(=O)C3CCCCC3)cc2C1=O	inactive
CN(C)CC(=O)N[C@H]1C=C[C@@H](CC(=O)NCCN2CCCCC2)O[C@@H]1CO	active

Consider the additional molecule presented here.
Enquiry: How was O=C(O)/C=C/c1cnc[nH]1 classified in this test?
Return: inactive

----------
System: HepG2
Measurement notes: cytotoxicity call (relative viability < 0.9)
Test conditions: 10 µM
About 3,300 (8.5%) of roughly 39,000 compounds were called active. Many of the other results were omitted from the sample, so actives are more common in it than they were.
Valid outcomes are listed here; reply with one: active, inactive

// known answers, use as guide
C[C@@]12CC[C@@H]3c4ccc(O)cc4C[C@H](CCCCCCCCC[S@@](=O)CCCC(F)(F)C(F)(F)F)[C@@H]3[C@@H]1CC[C@@H]2O	inactive
O=C(C[C@@H]1CC[C@H]2[C@@H](COC[C@@H](O)CN2S(=O)(=O)c2ccccc2Cl)O1)NCc1ccccc1Cl	inactive
COc1ccc(S(=O)(=O)Nc2ccc3c(c2)C(=O)N([C@@H](C)CO)C[C@@H](C)[C@H](CN(C)Cc2ccc(C(F)(F)F)cc2)OCCCC[C@@H](C)O3)cc1	active
C[C@@H]1CCCCO[C@@H](CN(C)Cc2ccncc2)[C@H](C)CN([C@H](C)CO)C(=O)c2cc(NC(=O)Nc3ccc4c(c3)OCO4)ccc2O1	inactive
CCOc1ccc(C(=O)Nc2ccc(S(=O)(=O)N3CCCC[C@@H]3c3cccnc3)cc2)cc1OCC	inactive

Enquiry: How was C[C@@H]1CN([C@@H](C)CO)C(=O)c2cc(NC(=O)Nc3ccc(C(F)(F)F)cc3)ccc2O[C@@H](C)CCCCO[C@@H]1CN(C)Cc1ccccc1 classified in this test?
Return: active

Enquiry: Also check C[C@@H]1CN([C@H](C)CO)C(=O)c2cc(NC(=O)Nc3ccc(C(F)(F)F)cc3)ccc2O[C@@H](C)CCCCO[C@@H]1CN(C)Cc1ccccc1
Return: active

Enquiry: Also check C[C@@H]1CN([C@H](C)CO)C(=O)c2cc(NC(=O)c3ccccc3)ccc2O[C@@H](C)CCCCO[C@@H]1CN(C)Cc1ccncc1
Return: inactive

Enquiry: Also check COc1ccc(S(=O)(=O)N[C@H]2CC[C@@H](CCNC(=O)CN3CCOCC3)O[C@@H]2CO)cc1
Return: inactive

Enquiry: Also check C[C@@H]1CCCCO[C@H](CN(C)Cc2ccncc2)[C@@H](C)CN([C@H](C)CO)C(=O)c2cc(NC(=O)Nc3ccccc3)ccc2O1
Return: inactive

Enquiry: Also check C[C@@H]1CCCCO[C@@H](CN(C)C(=O)c2ccccc2)[C@H](C)CN([C@@H](C)CO)C(=O)c2cc(NC(=O)c3ccccc3)ccc2O1
Return: inactive

Enquiry: Also check Cn1nc(O)c(=O)[nH]c1=S
Return: inactive

----------
Tested on: HepG2
Measurement notes: cytotoxicity call (relative viability < 0.9)
Test conditions: 10 µM
The whole screen tested about 39,000 compounds, of which about 3,300 (8.5%) were called active. This is one part of a sample in which actives are shown more often than they occur.
Observed property: cytotoxicity call

CC(C)(C)S(=O)N1Cc2cc(C(=O)N3CCN(Cc4ccccc4)CC3)nc(-c3cccc(C#CCC4CCCC4)c3)c2[C@H]1CCO (stereo partly specified)	active
COc1ccc(C#Cc2cccc(-c3nc(C(=O)N4CCN(Cc5ccccc5)CC4)cc4c3[C@@H](CCO)N(S(=O)C(C)(C)C)C4)c2)cc1OC (stereo partly specified)	inactive
C[C@@H]1CCCCO[C@H](CN(C)S(=O)(=O)c2cccs2)[C@H](C)CN([C@@H](C)CO)C(=O)c2cc(NS(=O)(=O)c3ccc(Cl)cc3)ccc2O1	active
O=C1OC(=O)[C@H]2[C@@H]1[C@H]1CC[C@H]2O1	active
C[C@@H]1CCCCO[C@@H](CN(C)S(=O)(=O)c2cccs2)[C@H](C)CN([C@H](C)CO)C(=O)c2cc(NS(=O)(=O)c3ccc(Cl)cc3)ccc2O1	active

Below are 3 compounds. Give each one its cytotoxicity call.
1. CC(C)NC(=O)N(C)C[C@H]1Oc2ccc(NS(=O)(=O)c3ccccc3)cc2CC(=O)N([C@@H](C)CO)C[C@H]1C
2. CC(C)(C)OC(=O)C[C@H]1CC=CC[C@@H](CC(=O)NCCO)C(=O)N[C@@H](Cc2ccccc2)COC1=O
3. C[C@@H]1CCCCO[C@H](CN(C)C(=O)CCCN(C)C)[C@H](C)CN([C@@H](C)CO)C(=O)c2cc(NC(=O)Nc3ccc(C(F)(F)F)cc3)ccc2O1

Return:
inactive
inactive
inactive

Below are 6 compounds. Give each one its cytotoxicity call.
1. C[C@@H]1CCCCO[C@@H](CN(C)S(=O)(=O)c2cccs2)[C@H](C)CN([C@@H](C)CO)C(=O)c2cc(NS(=O)(=O)c3ccc(Cl)cc3)ccc2O1
2. C[C@H](CO)N1C[C@H](C)[C@@H](CN(C)S(=O)(=O)c2ccc(F)cc2)OCCCC[C@H](C)Oc2ccc(NC(=O)C3CCCCC3)cc2C1=O
3. COc1ccc(S(=O)(=O)N(C)C[C@H]2OCCCC[C@@H](C)Oc3ccc(NC(=O)Nc4ccc(F)cc4)cc3C(=O)N([C@@H](C)CO)C[C@@H]2C)cc1
4. CC(C)CNc1nc(=O)cn[nH]1
5. CCNC(=O)C[C@@H]1CC[C@H]2[C@@H](COc3ccc(NS(=O)(=O)c4ccccc4C)cc3C(=O)N2C)O1
6. COc1nc2ccc(Br)cc2cc1[C@@H](c1ccccc1)[C@@](O)(CCN(C)C)c1cccc2ccccc12

Return:
1: inactive; 2: inactive; 3: inactive; 4: active; 5: inactive; 6: inactive

Below are 2 compounds. Give each one its cytotoxicity call.
1. C[C@@H]1CCCCO[C@@H](CN(C)CC2CC2)[C@@H](C)CN([C@H](C)CO)C(=O)c2cc(NC(=O)CCC(F)(F)F)ccc2O1
2. COc1ccc(CN(C)C[C@H]2OCCCC[C@H](C)Oc3ccc(NC(=O)Cc4ccccc4)cc3C(=O)N([C@H](C)CO)C[C@H]2C)cc1

Return:
["inactive", "inactive"]

----------
System: HepG2
Measurement notes: cytotoxicity call (relative viability < 0.9)
Test conditions: 10 µM
The whole screen tested about 39,000 compounds, of which about 3,300 (8.5%) were called active. Shown is part of a subset that was picked to be rich in actives.
Observed property: cytotoxicity call

Worked examples, 5 compounds total:
C[C@@H]1CN([C@@H](C)CO)C(=O)Cc2cc(NC(=O)Nc3cccc4ccccc34)ccc2O[C@H]1CN(C)C(=O)Nc1ccccc1	inactive
Cc1cn(-c2cc(NC(=O)c3ccc(C)c(Nc4nccc(-c5cnccn5)n4)c3)cc(C(F)(F)F)c2)cn1	inactive
Cc1cn(-c2cc(NC(=O)c3ccc(C)c(Nc4nccc(-c5cccnc5)n4)c3)cc(C(F)(F)F)c2)cn1	active
Cc1ccc(C(=O)Nc2cccc(C(F)(F)F)c2)cc1Nc1nc(-c2cccnc2)nc2c1cnn2C	active
Cc1cc(C(=O)Nc2cccc3c2O[C@H](CN(C)Cc2ccccc2)[C@H](C)CN([C@@H](C)CO)C3=O)n(C)n1	inactive

Below are 4 compounds. Give each one its cytotoxicity call.
1. C[C@H]1CN([C@@H](C)CO)C(=O)c2cc(C3=CCCC3)cnc2O[C@H]1CN(C)C(=O)Nc1ccc(C(F)(F)F)cc1
2. Cc1cc(C(=O)Nc2cccc3c2O[C@H](CN(C)Cc2ccc(C(=O)O)cc2)[C@H](C)CN([C@H](C)CO)C3=O)n(C)n1
3. O=C(c1ccccc1)N1Cc2ccccc2[C@H]2OC(c3ccc(OCCCO)cc3)=N[C@@]2(Cc2ccccc2)C1=O
4. Cn1c(=O)c2c(nc(N(CCO)CCO)n2Cc2ccc(F)cc2)n(C)c1=O

Return:
1: active; 2: inactive; 3: inactive; 4: inactive

Below are 6 compounds. Give each one its cytotoxicity call.
1. C[C@H](CO)N1C[C@H](C)[C@H](CN(C)C(=O)CN2CCOCC2)Oc2ncc(C3=CCCCC3)cc2C1=O
2. NC[C@H]1OB(O)c2c(OCCO)ccc(Cl)c21
3. C[C@@H]1CN([C@H](C)CO)C(=O)c2cc(C3=CCCC3)cnc2O[C@@H]1CN(C)C(=O)Nc1ccc(C(F)(F)F)cc1
4. CC(=O)N[C@@H](Cc1cccc(F)c1)C(=O)O
5. C[C@@H]1CN([C@@H](C)CO)C(=O)c2cc(/C=C/c3ccccc3)cnc2O[C@H]1CN(C)C(=O)Nc1ccc(C(F)(F)F)cc1
6. O=C(Nc1cccnc1)c1nc2ncccn2n1

Return:
inactive
inactive
active
inactive
inactive
inactive
